# System: HS 578T breast
# run_description: NCI tumour cell line growth inhibition, 48 h
measure: TGI

Provide TGI value for the following compound: Cn1nnc2c(C(N)=S)ncn2c1=O
> 100 µM

Name the recorded TGI of the compound listed here: CSC1=NN(C(C)=O)C(C(OC(C)=O)C(OC(C)=O)C(OC(C)=O)C(COC(C)=O)OC(C)=O)S1 (configuration not stated)
> 100 µM

Entry c1ccc2sc(SSSc3nc4ccccc4s3)nc2c1 needs its TGI filled in; supply it.
> 100 µM

Using known records, supply TGI for CCOc1cc(-c2nncn2C)ccc1Nc1ncc2cc(C)nc(NCC(C)(C)C)c2n1
> 100 µM

Quick one: give measured TGI for O=C1/C(=C\c2ccc(F)cc2)CN(C(=O)c2ccccc2F)C/C1=C\c1ccc(F)cc1
20.3 µM

Please list TGI recorded for the compound COc1ccc2c(c1)C(=Nc1ccc(F)c(Cl)c1)c1c-2c(Nc2ccc(F)c(Cl)c2)nc2ccccc12
98.5 µM

Determine from records and report TGI for CCn1cc(CNc2ccc(C(=O)Nc3cc4cc(OC)c(OC)cc4c(C)n3)cc2)c(C)n1
> 100 µM
